Source of measurements: PubChem BioAssay AID1996

solubility kinetic values for the compounds below.
# assay-context: buffer; pH 7.4; 200.0 µM
assay-metric: solubility kinetic

In [3]: df
Out[3]:
                                   compound        assay_metric  reported_measurement
0              O=C(O)c1csc(-c2ccc(Cl)cc2)n1  solubility kinetic            > 36 µg/mL
1  CCOC(=O)C1CCCN(C(=O)CN2C(=O)c3ccccc3S2(=O)=O)C1 (centres undefined)  solubility kinetic          > 57.1 µg/mL
2  Cc1cnc(NC(=O)[C@H](C)N2C(=O)C3CCCCC3C2=O)s1 (some centres undefined)  solubility kinetic          > 48.2 µg/mL
3  O=C(CNC(=O)c1ccccc1)Oc1ccc([N+](=O)[O-])cc1  solubility kinetic            > 45 µg/mL

---

solubility kinetic values for the compounds below.
# assay-context: buffer; pH 7.4; 200.0 µM
assay-metric: solubility kinetic (µg/mL)

>>> df
                                    compound        assay_metric  value_modifier  reported_measurement
 0                  Cn1cnc2c(=O)sc3ccccc3c21  solubility kinetic               >                  32.4
 1       S=C(Nc1cccc(Cl)c1)Nc1ccc2c(c1)OCCO2  solubility kinetic               =                  40.4
 2      O=C(Cc1ncc(C(F)(F)F)cc1Cl)NCc1cccnc1  solubility kinetic               >                  49.5
 3           O=C(CCSCc1ccc(Cl)cc1)NCc1cccnc1  solubility kinetic               =                    48
 4   Cc1ccc(C)c2sc(NC(=O)CN3C(=O)CCC3=O)nc12  solubility kinetic               =                  45.5
 5  Cc1c(NC2=CC(=O)CC(C)(C)C2)c(=O)n(-c2ccccc2)n1C  solubility kinetic               >                  48.8
 6    Cc1ccc(S(=O)(=O)NCCC(=O)NCc2cccnc2)cc1  solubility kinetic               >                    50
 7                  C[n+]1ccccc1/C=N/O.[Cl-]  solubility kinetic               >                  25.9
 8          N/C(CN1CCSCC1)=N\OCc1c(F)cccc1Cl  solubility kinetic               =                  40.4
 9  Cc1cccc(NS(=O)(=O)c2ccc3c(c2)CCC(=O)N3)c1  solubility kinetic               >                  47.5
10         c1ccc2oc(-c3csc(N4CCOCC4)n3)cc2c1  solubility kinetic               =                   4.7
11        COc1ccc(S(=O)(=O)Nc2cccnc2)c(C)c1C  solubility kinetic               =                  19.8
12  COc1ccc([N+](=O)[O-])cc1NC(=O)c1csc(C)c1  solubility kinetic               <                   0.3
13     c1ccc2[nH]c(CCCc3nc4ccccc4[nH]3)nc2c1  solubility kinetic               =                  29.7
14             CCS(=O)(=O)N1CCN=C1SCc1ccccc1  solubility kinetic               >                  42.7
15  Cc1ccc(C(=O)C(C)[n+]2cccc(C(N)=O)c2)cc1.[Br-] (stereo unspecified)  solubility kinetic               >                  52.4
16  CCN(CC)CCC(O)(c1ccccc1)C1CCCCC1 (stereo unspecified)  solubility kinetic               =                  24.3
17            CC(C)c1ccc(NC(=O)Nc2cnccn2)cc1  solubility kinetic               =                   3.9
18             O=C(Nc1ccccc1C(F)(F)F)c1ccsc1  solubility kinetic               >                  40.7
19  COc1ccc(C)cc1NC(=S)N1CC(C)OC(C)C1 (stereo unspecified)  solubility kinetic               >                  44.2
20            Cc1ccc(NC(=O)CCSc2nnc(C)o2)cc1  solubility kinetic               >                  41.6
21  CC(Oc1ccc(Cl)cc1C(N)=O)C(=O)N1CCc2ccccc21 (stereo unspecified)  solubility kinetic               =                   9.6
22        Fc1ccc(NC(=S)N2CCc3ccccc3C2)c(F)c1  solubility kinetic               =                  37.3
23      Cc1nc2sc(C(=O)c3ccccc3)c(N)c2c(C)c1C  solubility kinetic               <                   0.3
24          Cc1ccsc1C(=O)OCC(=O)Nc1cccc(F)c1  solubility kinetic               =                   3.4
25  Cc1ccc(N2C(=O)N(CC(=O)Nc3cc(C)cc(C)c3)C(=O)C2C)cc1 (stereo unspecified)  solubility kinetic               =                   7.5
26  CC1(C)CC2CC(C)(CN2C(=S)Nc2ccccc2)C1 (stereo unspecified)  solubility kinetic               =                  41.6
27  O=C(CSc1nc2c(c(=O)[nH]1)CCC2)Nc1ccccc1Cl  solubility kinetic               =                   8.8
28            Cc1ccccc1NC(=O)CSC(=O)c1ccccc1  solubility kinetic               =                  12.5
29      O=C(CCn1c(=S)oc2ccccc21)Nc1cccc(O)c1  solubility kinetic               =                   8.6
30          COc1ccccc1C(=O)CSc1cccc[n+]1[O-]  solubility kinetic               =                  14.4
31         COc1ccc(C(=O)Nc2ccccc2N2CCCC2)cc1  solubility kinetic               =                  25.6
32  O=C1CC(Sc2ncccc2C(=O)O)C(=O)N1 (stereo unspecified)  solubility kinetic               >                  37.8
33       COc1ccc(C)cc1Nc1c2c(nc3ccccc13)CCC2  solubility kinetic               >                  45.7
34   Cc1ccc(CC(=O)Nc2ncc([N+](=O)[O-])s2)cc1  solubility kinetic               =                   6.5
35  CN1CCN(C(=S)c2ccc(-c3cccc([N+](=O)[O-])c3)o2)CC1  solubility kinetic               =                  43.3
